Data origin: paper PMC10400593

Target: T1, Human Spindlin1 50-262 (human, UniProt Q9Y657 50-262)
T1 construct: also called SPIN1; not shown: GST, N-terminal, cleaved
T1 sequence (Q9Y657 50-262): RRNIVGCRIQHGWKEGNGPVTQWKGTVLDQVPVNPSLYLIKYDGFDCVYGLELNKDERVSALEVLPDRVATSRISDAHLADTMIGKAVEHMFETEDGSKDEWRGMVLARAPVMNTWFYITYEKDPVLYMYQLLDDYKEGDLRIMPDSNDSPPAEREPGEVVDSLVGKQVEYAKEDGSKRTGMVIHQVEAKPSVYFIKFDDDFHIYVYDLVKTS
Assay: ITC
Details: both partners purified
Where no end group is shown, it is not given here.
measured.attribute: Ka

# binder, readout.value
records = [
    ("Ac-CSFSSAGPCALRFTSARRME-NH2 (cysteine pairing not given here, source: synthetic peptide, bought: Scilight Biotechnology LLC) [HBx61-80 peptide]", "18200 M⁻¹"),
    ("Ac-PARDVLCLRPIGAESRGRPL-NH2 (source: synthetic peptide, bought: Scilight Biotechnology LLC) [HBx11-30 peptide]", "22600 M⁻¹"),
    ("AARLCCQLDPARDVLCLRPV-NH2 (cysteine pairing not given here, source: synthetic peptide, bought: Scilight Biotechnology LLC) [HBx-D2-21 peptide]", "1.56e+06 M⁻¹"),
    ("ARTK(me3)QTARK(me2)STGGKA (also called H3K4me3K9me2; source: synthetic peptide, bought: Scilight Biotechnology LLC) [H3 1-15 K4me3K9me2 peptide]", "4.18e+07 M⁻¹"),
    ("AARLCCQLDSSRDVLLLRPL-NH2 (cysteine pairing not given here, source: synthetic peptide, bought: Scilight Biotechnology LLC) [GSHBx2-21 peptide (ground squirrel HBx)]", "1.83e+06 M⁻¹"),
    ("AARLCCQLDSARDVLLLRPF-NH2 (cysteine pairing not given here, also called FWHx; source: synthetic peptide, bought: Scilight Biotechnology LLC) [WHx2-21 peptide (woodchuck HBx)]", "354000 M⁻¹"),
]
